# System: KB
# PROTOCOL DETAILS: In vitro growth inhibition of KB, epidermoid carcinoma of the nasopharynx.
# Assay type: functional, cell-based
# DETAILS: Homo sapiens
MEASURED QUANTITY: EC50 (µg/mL)

A. COC(=O)Oc1cc2c(c(OC(=O)OC)c1OC(=O)OC)-c1ccc(SC)c(=O)cc1[C@@H](NC(=O)c1ccc([N+](=O)[O-])cc1)CC2
B. CCC(=O)Oc1cc2c(c(OC(=O)CC)c1OC(=O)CC)-c1ccc(SC)c(=O)cc1[C@@H](NC(=O)c1ccc([N+](=O)[O-])cc1)CC2
C. CSc1ccc2c(cc1=O)[C@@H](NC(=O)c1ccc([N+](=O)[O-])cc1)CCc1cc(OC(C)=O)c(OC(C)=O)c(OC(C)=O)c1-2
D. CSc1ccc2c(cc1=O)[C@@H](NC(=O)c1ccc([N+](=O)[O-])cc1)CCc1cc(OC(=O)C(C)C)c(OC(=O)C(C)C)c(OC(=O)C(C)C)c1-2
Q: Please list these compounds in decreasing order of EC50. Could you list the labels in the order requested?
A: D, B, A, C

a. CSc1ccc2c(cc1=O)[C@@H](NC(=O)c1ccc([N+](=O)[O-])cc1)CCc1cc(O)c(O)c(O)c1-2
b. Br.CSc1ccc2c(cc1=O)[C@@H](NC(=O)c1ccc(N)cc1)CCc1cc(O)c(O)c(O)c1-2
Q: Please indicate which has the smaller reported EC50: a , or b . Mark your answer with the label of the selected entry.
A: b
(b: 4.8 µg/mL, a: 7.7 µg/mL)
